# assayed_target: T1, human complement factor H (human, UniProt P08603 19-1231)
# T1 construct: also called human fH; fH
# T1 sequence (P08603 19-1231 limits assumed): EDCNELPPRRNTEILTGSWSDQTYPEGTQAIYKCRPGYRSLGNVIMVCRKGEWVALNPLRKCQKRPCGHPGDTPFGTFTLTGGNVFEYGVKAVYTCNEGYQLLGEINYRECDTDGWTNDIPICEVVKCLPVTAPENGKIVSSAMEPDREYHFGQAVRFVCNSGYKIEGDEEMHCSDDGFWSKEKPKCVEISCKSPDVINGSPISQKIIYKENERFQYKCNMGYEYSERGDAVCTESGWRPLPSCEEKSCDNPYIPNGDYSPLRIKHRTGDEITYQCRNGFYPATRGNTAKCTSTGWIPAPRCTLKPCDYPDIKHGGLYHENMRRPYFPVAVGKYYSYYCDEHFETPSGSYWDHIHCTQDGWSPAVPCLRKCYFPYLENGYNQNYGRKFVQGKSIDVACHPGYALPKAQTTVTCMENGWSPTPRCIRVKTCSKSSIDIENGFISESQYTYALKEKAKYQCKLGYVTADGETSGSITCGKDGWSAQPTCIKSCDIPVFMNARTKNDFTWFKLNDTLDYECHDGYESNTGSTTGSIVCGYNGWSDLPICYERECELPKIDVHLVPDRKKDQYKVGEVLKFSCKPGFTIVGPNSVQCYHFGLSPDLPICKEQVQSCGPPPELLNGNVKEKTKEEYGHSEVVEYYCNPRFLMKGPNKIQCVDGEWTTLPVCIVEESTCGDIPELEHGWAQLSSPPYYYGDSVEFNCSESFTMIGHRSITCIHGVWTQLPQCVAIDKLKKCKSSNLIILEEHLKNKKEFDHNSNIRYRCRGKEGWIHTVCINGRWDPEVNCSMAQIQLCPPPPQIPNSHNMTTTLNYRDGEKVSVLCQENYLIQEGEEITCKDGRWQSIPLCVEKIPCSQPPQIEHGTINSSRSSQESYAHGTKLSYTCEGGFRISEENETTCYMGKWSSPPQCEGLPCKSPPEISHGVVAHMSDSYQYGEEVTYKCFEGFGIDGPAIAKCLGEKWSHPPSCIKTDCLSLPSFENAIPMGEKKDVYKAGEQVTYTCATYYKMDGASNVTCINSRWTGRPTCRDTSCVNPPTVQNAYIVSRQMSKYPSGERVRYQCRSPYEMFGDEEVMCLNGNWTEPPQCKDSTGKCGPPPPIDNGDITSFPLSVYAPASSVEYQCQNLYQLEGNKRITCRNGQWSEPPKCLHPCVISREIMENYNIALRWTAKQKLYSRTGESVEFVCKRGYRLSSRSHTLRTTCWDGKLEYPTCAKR
# experimental_details: ELISA, fHbp on plate

binder	binding result
fHbp ID 28 K245A mutant (other) CSSGGGGSGGGGVAADIGTGLADALTAPLDHKDKGLKSLTLEDSIPQNGTLTLSAQGAEKTFKAGDKDNSLNTGKLKNDKISRFDFVQKIEVDGQTITLASGEFQIYKQNHSAVVALQIEKINNPDKTDSLINQRSFLVSGLGGEHTAFNQLPGGKAEYHGKAFSSDDPNGRLHYSIDFTKKQGYGRIEHLKTLEQNVELAAAELKADEKSHAVILGDTRYGSEEKGTYHLALFGDRAQEIAGSATVKIGEAVHEIGIAGKQ	binds
